These data points were gathered from patent US11919857B2.

ASSAY TEXT: In vivo pharmacokinetics in rats (gavage and intravenous injection), plasma HPLC-DAD
Parameters: species or system Wistar rats
EXPERIMENTAL SETUP: male, Wistar, rat, in vivo, po, 90 mg/kg
VALUE KIND: Tmax (h)
Give bare numbers, in h.

Quick one: Tmax for CCCCC1(O)C2=C(C=CCC2)C(=O)N1C1CC1 (racemic) [ligustilide derivative] ?
1.2

---

ASSAY TEXT: In vivo pharmacokinetics in rats (gavage and intravenous injection), plasma HPLC-DAD
Set-up: species or system Wistar rats
EXPERIMENTAL SETUP: male, Wistar, rat, in vivo, po, 90 mg/kg
Method: Certain amounts of N-cyclopropyl-3-n-butyl-3-hydroxy-ligusticum lactam and N-cyclopropyl-3-n-butyl-3-hydroxy-phthalide lactam standards were accurately weighed respectively, and dissolved and diluted in the methanol to obtain 2.0 mg/mL of standard stock solutions. […] 20 uL of each sample was analyzed by HPLC system, to sequentially determine N-cyclopropyl-3-n-butyl-3-hydroxy-ligusticum lactam and N-cyclopropyl-3-n-butyl-3-hydroxy-phthalide lactam. […]
VALUE KIND: AUC(0-t) (µg·h/mL)
One number for each entry, in µg·h/mL.

So what does the record say about AUC(0-t) for CCCCC1(O)C2=C(C=CCC2)C(=O)N1C1CC1 (racemic) [ligustilide derivative] ?
35.3
